# System: Pseudomonas aeruginosa
# assay: Antibacterial activity against Pseudomonas aeruginosa ATCC 27853 after 18 to 24 hrs by twofold serial dilution method
# Type: functional
measuredMetric: MIC (µg/mL)
Enter your answer as a number in µg/mL; do not include the unit.

# compound, measurementUnit, dataValue
records = [
    ("CCO/N=C1\\CN(c2c(F)cc3c(=O)c(C(=O)O)cn4c3c2OC[C@@H]4C)CC1/C(N)=N\\OCC (stereo partly drawn)", "µg/mL", 64),
]

Q: Record request: MIC value, item CCO/N=C1\CN(c2c(F)cc3c(=O)c(C(=O)O)cn(CC)c3c2F)CC1/C(N)=N\OC (stereo not drawn)
A: 128

Q: Record request: MIC value, item CCO/N=C1\CN(c2c(F)cc3c(=O)c(C(=O)O)cn(C4CC4)c3c2OC(F)F)CC1/C(N)=N\OC (stereo not drawn)
A: 8

Q: Record request: MIC value, item CO/N=C1\CN(c2c(F)cc3c(=O)c(C(=O)O)cn(CCF)c3c2F)CC1/C(N)=N\OC (stereo not drawn)
A: 32

Q: Record request: MIC value, item CCO/N=C1\CN(c2c(F)cc3c(=O)c(C(=O)O)cn(C4CC4)c3c2OC)CC1/C(N)=N\O (stereo not drawn)
A: 32

Q: Record request: MIC value, item CCO/N=C1\CN(c2nc3c(cc2F)c(=O)c(C(=O)O)cn3-c2ccc(F)cc2F)CC1/C(N)=N\OCC (stereo not drawn)
A: 64

----------
# Test system: Pseudomonas aeruginosa
# assay: Antibacterial activity against Pseudomonas aeruginosa 09-34 after 18 to 24 hrs by twofold serial dilution method
# Format: functional
measuredMetric: MIC (µg/mL)
Enter your answer as a number in µg/mL; do not include the unit.

# compound, measuredMetric, measurementUnit, dataValue
measured = [
    ("CO/N=C1\\CN(c2nc3c(cc2F)c(=O)c(C(=O)O)cn3C2CC2)CC1CN (centres undefined)", "MIC", "µg/mL", 0.5),
]

Attention now shifts to the item below.
Q: MIC of CCn1cc(C(=O)O)c(=O)c2cc(F)c(N3C/C(=N\OC)C(/C(N)=N\O)C3)c(F)c21 (centres undefined) on Pseudomonas aeruginosa?
A: 1

----------
# Test system: Klebsiella pneumoniae
# assay: Antibacterial activity against Klebsiella pneumoniae 09-22 after 18 to 24 hrs by twofold serial dilution method
# Type: functional
Threshold 2 µg/mL: MIC strictly smaller gives met, otherwise not met.

Before answering, review these 6 worked examples.
# compound, systemUnderTest, categoryLabel
data = [
    ("CO/N=C1\\CN(c2c(F)cc3c(=O)c(C(=O)O)cn(C4CC4)c3c2F)CC1/C(N)=N\\OC (stereo not drawn)", "Klebsiella pneumoniae", "met"),
    ("CO/N=C1\\CN(c2nc3c(cc2F)c(=O)c(C(=O)O)cn3C2CC2)CC1CN (stereo not drawn)", "Klebsiella pneumoniae", "not met"),
    ("CO/N=C1\\CN(c2c(F)cc3c(=O)c(C(=O)O)cn4c3c2OC[C@@H]4C)CC1/C(N)=N\\O (stereo partly drawn)", "Klebsiella pneumoniae", "not met"),
    ("CCO/N=C1\\CN(c2nc3c(cc2F)c(=O)c(C(=O)O)cn3C2CC2)CC1/C(N)=N\\OCC (stereo not drawn)", "Klebsiella pneumoniae", "not met"),
    ("CCO/N=C(/N)C1CN(c2c(F)cc3c(=O)c(C(=O)O)cn(C4CC4)c3c2OC)C/C1=N\\OC (stereo not drawn)", "Klebsiella pneumoniae", "not met"),
    ("CO/N=C1\\CN(c2c(F)cc3c(=O)c(C(=O)O)cn(CCF)c3c2F)CC1/C(N)=N\\OC (stereo not drawn)", "Klebsiella pneumoniae", "not met"),
]

Q: Is the reported MIC for CCO/N=C1\CN(c2c(F)cc3c(=O)c(C(=O)O)cn(C4CC4)c3c2OC(F)F)CC1/C(N)=N\O (stereo not drawn) strictly below 2 µg/mL?
A: not met

Q: Is the reported MIC for CO/N=C1\CN(c2nc3c(cc2F)c(=O)c(C(=O)O)cn3-c2ccc(F)cc2F)CC1/C(N)=N\OC (stereo not drawn) strictly below 2 µg/mL?
A: met

----------
Each entry below lists one item and its recorded MIC value.
# Test system: Staphylococcus epidermidis
# assay: Antibacterial activity against methicillin-sensitive Staphylococcus epidermidis 09-6 after 18 to 24 hrs by twofold serial dilution method
# Assay type: functional
Enter your answer as a number in µg/mL; do not include the unit.

# compound, measuredMetric, dataValue
rows = [
    ("CO/N=C1\\CN(c2c(F)cc3c(=O)c(C(=O)O)cn4c3c2OC[C@@H]4C)CC1/C(N)=N\\O (stereo not given in full)", "MIC", 0.25),
    ("CCO/N=C(/N)C1CN(c2c(F)cc3c(=O)c(C(=O)O)cn(C4CC4)c3c2OC)C/C1=N\\OC (stereo not given)", "MIC", 0.25),
    ("CCO/N=C1\\CN(c2c(F)cc3c(=O)c(C(=O)O)cn(CC)c3c2F)CC1/C(N)=N\\O (stereo not given)", "MIC", 0.125),
]

Q: Record request: MIC value, item CO/N=C1\CN(c2c(F)cc3c(=O)c(C(=O)O)cn(C4CC4)c3c2OC)CC1/C(N)=N\O (stereo not given)
A: 0.25

----------
Each entry below lists one item and its recorded MIC value.
# Test system: Klebsiella pneumoniae
# assay: Antibacterial activity against Klebsiella pneumoniae 09-23 after 18 to 24 hrs by twofold serial dilution method
# Assay type: functional

# compound, MIC
data = [
    ("CCn1cc(C(=O)O)c(=O)c2cc(F)c(N3C/C(=N\\OC)C(/C(N)=N\\O)C3)c(F)c21 (stereo not drawn)", "> 128 µg/mL"),
    ("CCO/N=C(/N)C1CN(c2c(F)cc3c(=O)c(C(=O)O)cn(C4CC4)c3c2OC)C/C1=N\\OC (stereo not drawn)", "> 128 µg/mL"),
    ("CO/N=C1\\CN(c2c(F)cc3c(=O)c(C(=O)O)cn(C4CC4)c3c2OC)CC1/C(N)=N\\OC (stereo not drawn)", "> 128 µg/mL"),
    ("CCO/N=C(/N)C1CN(c2c(F)cc3c(=O)c(C(=O)O)cn(CCF)c3c2F)C/C1=N\\OC (stereo not drawn)", "> 128 µg/mL"),
    ("CCO/N=C1\\CN(c2c(F)cc3c(=O)c(C(=O)O)cn(CCF)c3c2F)CC1/C(N)=N\\OC (stereo not drawn)", "> 128 µg/mL"),
]

Q: Record request: MIC value, item CCO/N=C1\CN(c2nc3c(cc2F)c(=O)c(C(=O)O)cn3-c2ccc(F)cc2F)CC1/C(N)=N\OC (stereo not drawn)
A: 32 µg/mL

Q: Record request: MIC value, item CO/N=C1\CN(c2c(F)cc3c(=O)c(C(=O)O)cn(CCF)c3c2F)CC1/C(N)=N\OC (stereo not drawn)
A: > 128 µg/mL

Q: Record request: MIC value, item CCO/N=C1\CN(c2c(F)cc3c(=O)c(C(=O)O)cn(C4CC4)c3c2OC)CC1/C(N)=N\OCC (stereo not drawn)
A: 64 µg/mL

----------
# Tested on: Enterococcus faecium
# assay: Antibacterial activity against Enterococcus faecium 08-7 after 18 to 24 hrs by twofold serial dilution method
# Type: functional
measuredMetric: MIC

Examples with answers:
# compound, MIC
records = [
    ("CO/N=C1\\CN(c2c(F)cc3c(=O)c(C(=O)O)cn(C4CC4)c3c2OC(F)F)CC1/C(N)=N\\O (stereo not drawn)", "> 128 µg/mL"),
    ("CCO/N=C1\\CN(c2c(F)cc3c(=O)c(C(=O)O)cn(CCF)c3c2F)CC1/C(N)=N\\OCC (stereo not drawn)", "> 128 µg/mL"),
]

Q: Record request: MIC value, item CCO/N=C1\CN(c2nc3c(cc2F)c(=O)c(C(=O)O)cn3C2CC2)CC1/C(N)=N\OC (stereo not drawn)
A: > 128 µg/mL

----------
Each entry below lists one item and its recorded MIC value.
# System: Staphylococcus aureus
# assay: Antibacterial activity against Staphylococcus aureus ATCC […] after 18 to 24 hrs by twofold serial dilution method
# Assay type: functional
Enter your answer as a number in µg/mL; do not include the unit.

Examples with answers:
# compound, MIC, µg/mL
measured = [
    ("CO/N=C1\\CN(c2nc3c(cc2F)c(=O)c(C(=O)O)cn3C2CC2)CC1CN (configuration not stated) [GEMIFLOXACIN]", 0.125),
    ("CCO/N=C(/N)C1CN(c2c(F)cc3c(=O)c(C(=O)O)cn(C4CC4)c3c2OC)C/C1=N\\OC (configuration not stated)", 0.25),
    ("CCO/N=C1\\CN(c2nc3c(cc2F)c(=O)c(C(=O)O)cn3C2CC2)CC1/C(N)=N\\O (configuration not stated)", 0.25),
    ("CO/N=C1\\CN(c2c(F)cc3c(=O)c(C(=O)O)cn(CCF)c3c2F)CC1/C(N)=N\\OC (configuration not stated)", 0.125),
    ("CCO/N=C1\\CN(c2c(F)cc3c(=O)c(C(=O)O)cn(CCF)c3c2F)CC1/C(N)=N\\OCC (configuration not stated)", 2),
    ("CO/N=C1\\CN(c2c(F)cc3c(=O)c(C(=O)O)cn(C4CC4)c3c2OC)CC1/C(N)=N\\OC (configuration not stated)", 0.125),
]

Q: MIC of CO/N=C1\CN(c2nc3c(cc2F)c(=O)c(C(=O)O)cn3C2CC2)CC1/C(N)=N\OC (configuration not stated) on Staphylococcus aureus?
A: 0.25
